Reported Papp values are given for each entry in this list.
# assay protocol: Caco-2 assay (permeability across cell monolayers)
# Format: in vitro ADME
# conditions used: Caco-2; 1 μM compounds in HBSS (pH 7.4) containing 10 mM HEPES and 1% DMSO, 3 h incubation at 37 °C; read-out: Caco-2 permeability Pa
Non-standard residues stand in square brackets, D forms with d. Residues, ends and D or L forms follow the SMILES beside them. Hica(2S) = CC(C)C[C@H](O)C(=O)O; NMeL = CN[C@@H](CC(C)C)C(=O)O

compound: CC(C)C[C@@H]1NC(=O)[C@H](Cc2ccc(O)cc2)NC(=O)[C@H]2CCCN2C(=O)[C@H](CC(C)C)N(C)C(=O)[C@H](CC(C)C)NC(=O)[C@@H](CC(C)C)NC1=O [MP5] (cyclo(L[NMeL][dP]YL[dL]))
Papp (×10⁻⁶ cm/s): 1.2

compound: CC(C)C[C@@H]1NC(=O)[C@H](Cc2ccc(O)cc2)NC(=O)[C@H]2CCCN2C(=O)[C@H](CC(C)C)OC(=O)[C@H](CC(C)C)NC(=O)[C@@H](CC(C)C)NC1=O [DP5] (cyclo(L[dL]L[Hica(2S)][dP]Y))
Papp (×10⁻⁶ cm/s): 2.8

compound: CC(C)C[C@@H]1NC(=O)[C@@H](CC(C)C)NC(=O)[C@H](CC(C)C)OC(=O)[C@H](Cc2ccc(O)cc2)NC(=O)[C@H]2CCCN2C(=O)[C@H](CC(C)C)NC1=O [DP2] (cyclo(LL[dP]Y[Hica(2S)][dL]))
Papp (×10⁻⁶ cm/s): 0.9
